measured_on: T1, c-MET on cells (human, UniProt P08581)
T1 construct: endogenous receptor on the cell surface; for A549 cells m4 is used; also called HGFR; on NCI-H441, EBC-1, A431, MKN-45, SK-MEL2 or HepG2 cells (cell line under assay)
test_details: flow cytometry, SK-MEL2 cells (c-MET+ EGFR-)
metric_name: MFI at 100 nM
Answers are plain numbers.

binder: oa CS06 (antibody, V domains shown, one-armed (monovalent) anti-c-MET SEED molecule; also called one-armed CS06) VH: QVQLQQSGAEVKKPGSSAKVSCKASGGTFSSNAISWVRQAPGQGLEWMGGIIPIFGTAIYAQKFQGRVTITADESTSTAYMELSSLRSEDTAVYYCARDQRGYYYYYYYGMDVWGQGTTVTVSS VL: QLVLTQSPSVSVAPGKTARITCGGNNIRNVGVHWYQKKPGQAPILVVYDDDDRPSGVPERFSGSNSGNTATLTISRVEAGDEADYYCQVWDSATDQRVFGGGTKLTVLG
MFI at 100 nM: 213
//
binder: oa225-M (antibody, V domains shown, one-armed (monovalent) anti-EGFR SEED molecule) VH: EVQLVQSGAEVKKPGASVKVSCKASGFSLTNYGVHWMRQAPGQGLEWIGVIWSGGNTDYNTPFTSRVTITSDKSTSTAYMELSSLRSEDTAVYYCARALTYYDYEFAYWGQGTLVTVSS VL: DIQMTQSPSSLSASVGDRVTITCRASQSIGTNIHWYQQKPGKAPKLLIKYASESISGVPSRFSGSGYGTDFTLTISSLQPEDVATYYCQQNYNWPTTFGQGTKVEIK
MFI at 100 nM: 19
//
binder: oa 425 (antibody, V domains shown, one-armed (monovalent) anti-EGFR SEED molecule) VH: QVQLVQSGAEVKKPGASVKVSCKASGYTFTSHWMHWVRQAPGQGLEWIGEFNPSNGRTNYNEKFKSKATMTVDTSTNTAYMELSSLRSEDTAVYYCASRDYDYDGRYFDYWGQGTLVTVSS VL: DIQMTQSPSSLSASVGDRVTITCSASSSVTYMYWYQQKPGKAPKLLIYDTSNLASGVPSRFSGSGSGTDYTFTISSLQPEDIATYYCQQWSSHIFTFGQGTKVEIKR
MFI at 100 nM: 17
//
binder: oa 225-L (antibody, V domains shown, one-armed (monovalent) anti-EGFR SEED molecule) VH: EVQLVQSGAEVKKPGASVKVSCKASGFSLTNYGVHWMRQAPGQGLEWIGVIWRGGNTDYNTPFTSRVTITSDKSTSTAYMELSSLRSEDTAVYYCARALTYYDYEFAYWGQGTLVTVSS VL: DIQMTQSPSSLSASVGDRVTITCRASQSIGTNIHWYQQKPGKAPKLLIKYASESISGVPSRFSGSGYGTDFTLTISSLQPEDVATYYCQQNNNWPTTFGQGTKVEIK
MFI at 100 nM: 17

Okay, now this binder:
For oa 225-H (antibody, V domains shown, one-armed (monovalent) anti-EGFR SEED molecule) VH: EVQLVQSGAEVKKPGASVKVSCKASGFSLTNYGVHWMRQAPGQGLEWIGVIWSGGNTDYNTPFTSRVTITSDKSTSTAYMELSSLRSEDTAVYYCARALDYYDYEFAYWGQGTLVTVSS VL: DIQMTQSPSSLSASVGDRVTITCRASQSIGTNIHWYQQKPGKAPKLLIKYASESISGVPSRFSGSGYGTDFTLTISSLQPEDVATYYCQQNNEWPNTFGQGTKVEIK the binder record lists MFI at 100 nM as 20
